- tested-target: Glutaminase kidney isoform, mitochondrial (Homo sapiens) (UniProt O94925)
- Sequence (O94925 whole entry, looked up, canonical isoform): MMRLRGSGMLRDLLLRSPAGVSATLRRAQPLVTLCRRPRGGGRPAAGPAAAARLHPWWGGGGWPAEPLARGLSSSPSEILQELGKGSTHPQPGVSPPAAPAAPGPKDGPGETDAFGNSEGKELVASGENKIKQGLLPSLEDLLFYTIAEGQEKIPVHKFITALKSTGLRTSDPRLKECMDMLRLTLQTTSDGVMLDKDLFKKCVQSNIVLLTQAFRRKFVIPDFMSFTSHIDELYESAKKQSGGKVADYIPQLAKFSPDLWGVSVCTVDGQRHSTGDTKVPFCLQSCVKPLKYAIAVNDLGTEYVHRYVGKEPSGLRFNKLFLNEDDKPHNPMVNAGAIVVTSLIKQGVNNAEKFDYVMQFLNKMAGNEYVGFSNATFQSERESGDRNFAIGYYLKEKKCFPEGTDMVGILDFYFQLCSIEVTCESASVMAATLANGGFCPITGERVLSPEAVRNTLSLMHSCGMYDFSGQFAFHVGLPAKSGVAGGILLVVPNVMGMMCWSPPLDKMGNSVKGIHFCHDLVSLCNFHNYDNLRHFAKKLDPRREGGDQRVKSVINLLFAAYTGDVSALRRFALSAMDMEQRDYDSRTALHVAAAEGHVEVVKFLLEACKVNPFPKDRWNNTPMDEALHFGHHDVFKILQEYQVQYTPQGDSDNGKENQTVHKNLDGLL
- measurement-notes: qHTS for Inhibitors of Glutaminase (GLS): LOPAC Validation (AID 624146);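 note: glutamate product detected by oxidase and peroxidase coupled Amplex red fluorescence gain; nearly all actives have a fitted effect of over 60% in size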
- test-conditions: glutaminase enzyme activity inhibition; series mostly up to 46.1 µM
Records with an inconclusive call do not appear. Calls of active or inactive are those of the source. Calls come from the whole dose curve; as a rule, active = well fitted inhibition curve with a large enough effect; inconclusive = small, poorly fitted or top-dose-only effect; inactive = no such curve, though single readings can be large or run the other way.
measured-attribute: outcome

structure-smiles | value-observed
Ic1ccc(N2CCN(Cc3c[nH]c4ncccc34)CC2)cc1 | inactive
O=[N+]([O-])c1ccc2c(c1)S(=O)(=O)C=C2 | inactive
N=c1ccn2c(n1)O[C@H]1[C@H](O)[C@@H](CO)O[C@H]12 | inactive
OC[C@H]1O[C@@H](n2cnc3c(NC4CCCCC4)ncnc32)[C@H](O)[C@@H]1O | inactive
CCCCCCCCc1ccc(-c2ccc(C(=O)O)cc2)cc1 | inactive
O=P(O)(O)C(Cl)(Cl)P(=O)(O)O | inactive
